# Test system: MARIMO
# assay name: cell viability relative to vehicle control; higher = less cytotoxic;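 also: after 48 h exposure read by CellTiter-Glo luminescence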
# details: 10 µM; SRSF2 genotype: SRSF2 P95H/wt
measurement kind: cell viability
Answer with the figure and its unit, nothing else.

Known results for compounds:
| compound | cell viability |
| --- | --- |
| CN(C)CC/C=C1/c2ccccc2Sc2ccc(Cl)cc21 [Chlorprothixene] | 78.3% |
| CN(C)Cc1cccc(N=C(c2ccccc2)c2c(O)[nH]c3cc(C(N)=O)ccc23)c1 | 72.2% |
| CN1C(=O)[C@@H](NC(=O)c2cc(Cc3ccccc3)on2)COc2ccccc21 | 98.9% |
| CCCc1cc(C)[nH]c(=O)c1CNC(=O)c1cc(-c2ccc(N3CCN(C)CC3)nc2)nc2c1cnn2C(C)C | 85.6% |

// switching to the query compound
// query Could you tell me which cell viability is on file for CCOC(=O)/C=C/c1ccc(O)c(O)c1 [Ethyl caffeate] ?
// result 44.4%

====

# Test system: OCI-AML2
# assay name: cell viability relative to vehicle control; higher = less cytotoxic
# details: 10 µM; SRSF2 genotype: P95H/wt
Where a name gives a salt, the structure may show the parent alone.
Criterion: cell viability strictly less than 30%. Met: 1 (yes). Not met: 0 (no).

| compound | cat |
| --- | --- |
| CCNC(=O)c1noc(-c2cc(C(C)C)c(O)cc2O)c1-c1ccc(CN2CCOCC2)cc1 | 1 (yes) |
| C=C1CC[C@H](O)C/C1=C/C=C1\CCC[C@]2(C)[C@@H]([C@H](C)/C=C/[C@H](C)C(C)C)CC[C@@H]12 [Vitamin D2 (Ergocalciferol)] | 0 (no) |
| C=C(c1ccc(C(=O)O)cc1)c1cc2c(cc1C)C(C)(C)CCC2(C)C | 0 (no) |
| CN1c2cc(O)c(N=NC(N)=O)cc2CC1S(=O)(=O)O (configuration not stated) [Carbazochrome sodium sulfonate] | 0 (no) |
| CCOC(=O)[C@H](CCc1ccccc1)N[C@@H](C)C(=O)N1CCC[C@H]1C(=O)O [Enalapril maleate (Vasotec)] | 0 (no) |

// query Criterion: cell viability strictly below 30%. Is it met by CC(C)(C)c1cc(/C=C(\C#N)C(N)=S)cc(C(C)(C)C)c1O ?
// result 1 (yes)

// query Criterion: cell viability strictly below 30%. Is it met by Cc1cn(CCN2CCN(c3ccccc3-c3cc(C#N)cc(C(=O)NCCCN4CCCC4)c3)CC2)c2ccccc12 ?
// result 1 (yes)

====

# Test system: OCI-AML2
# assay name: cell viability relative to vehicle control; higher = less cytotoxic
# details: 10 µM; SRSF2 genotype: P95H/wt
Where a name gives a salt, the structure may show the parent alone.
Criterion: cell viability strictly less than 90%. Met: t. Not met: f.

Sample answers from the record:
| compound | cat |
| --- | --- |
| COc1ccc(-c2nc(N3CCOCC3)c3sc(CN(C)c4ncc(C(=O)NO)cn4)cc3n2)cn1 | t |
| CC1C(=O)OC2C(O)C34C5CC(C(C)(C)C)C36C(OC(=O)C6O)OC4(C(=O)O5)C12O (configuration not stated) [Ginkgolide B] | f |
| CC1(C)C2CCC1(C)C(O)C2 (single isomer, unassigned; (-)) [(-)-Borneol] | f |
| Cc1[nH]c(/C=C2\C(=O)Nc3ccc(S(=O)(=O)Cc4c(Cl)cccc4Cl)cc32)c(C)c1C(=O)N1CCC[C@@H]1CN1CCCC1 | t |
| C=C1C2CCC3C2C(C)(C)CCCC13C (single isomer, unassigned; (+)) [(+)-Longifolene] | f |

// query Criterion: cell viability strictly below 90%. Is it met by NS(N)(=O)=O [Sulfamide] ?
// result f

// query Criterion: cell viability strictly below 90%. Is it met by CN(C)CCNC(=O)c1cccn2c(=O)c3cc4ccccc4cc3nc12 ?
// result t

// query Criterion: cell viability strictly below 90%. Is it met by Nc1cc(N)c(N)cc1N ?
// result f

// query Criterion: cell viability strictly below 90%. Is it met by O=C(/C=C/N1C[C@H]2C[C@@H]1CN2c1ccccn1)c1ccccc1O ?
// result f

// query Criterion: cell viability strictly below 90%. Is it met by COc1cc2c(cc1O)CC[C@@H]1[C@@H]2CC[C@]2(C)[C@@H](O)CC[C@@H]12 ?
// result t

// query Criterion: cell viability strictly below 90%. Is it met by CCOC(=O)[C@H](CCc1ccccc1)N[C@H]1CS[C@H](c2cccs2)CN(CC(=O)O)C1=O [Temocapril HCl] ?
// result f

// query Criterion: cell viability strictly below 90%. Is it met by CCCCC(F)(F)[C@@]1(O)CC[C@H]2[C@@H](CC(=O)[C@@H]2CCCCCCC(=O)O)O1 ?
// result t

// query Criterion: cell viability strictly below 90%. Is it met by CC(C)[C@H]1CC[C@H](C(=O)N[C@H](Cc2ccccc2)C(=O)O)CC1 [Nateglinide (Starlix)] ?
// result f

// query Criterion: cell viability strictly below 90%. Is it met by COc1cc2c(Oc3ccc4[nH]c(C)cc4c3F)ccnc2cc1OCC1(N)CC1 [Anlotinib (AL3818) dihydrochloride] ?
// result t

// query Criterion: cell viability strictly below 90%. Is it met by CN(CC(=O)N(Cc1ccc(C2CCCCC2)cc1)c1ccc(C(=O)NO)cc1)S(=O)(=O)c1c(F)c(F)c(F)c(F)c1F ?
// result t
